# pKi listing for each entry below
system: Cholecystokinin receptor type A (Rattus norvegicus)
protocol.summary: In vitro inhibition of binding of [3H]pCCK-8 against Cholecystokinin type A receptor of rat pancreatic membranes
Assay type: cell membranes, Membrane
// field semantics: pKi = negative decimal log of concentration (mol/L)

Worked examples follow.
compound	endpoint.value
CC(C)CCN1C(=O)C(NC(=O)Nc2ccccc2)C(=O)N(c2ccccc2F)c2ccccc21 (racemic)	6.71
CC(C)(C)CCN1C(=O)C(NC(=O)Nc2cccc(C#N)c2)C(=O)N(c2ccccc2)c2ccccc21 (configuration not stated)	7.01
CC(C)(C)CCN1C(=O)C(NC(=O)Nc2cccc(OC(F)(F)F)c2)C(=O)N(c2ccccc2)c2ccccc21 (racemic)	6.95

Consider CN(C)c1cccc(NC(=O)NC2C(=O)N(c3ccccc3)c3ccccc3N(C3CC4CCC3C4)C2=O)c1 (configuration not stated) . Its measured pKi is 7.35

Just so you know, measured pKi for O=C(Nc1ccccc1)NC1C(=O)N(CC2[C@H]3C[C@@H]4C[C@@H](C[C@H]2C4)C3)c2ccccc2N(c2ccccc2)C1=O (mixture of isomers) came out at 7.08

Quick note, pKi for CC(=O)Nc1cccc(NC(=O)NC2C(=O)N(CC34C[C@H]5C[C@@H](C3)C[C@@H](C4)C5)c3ccccc3N(c3ccccc3)C2=O)c1 (some centres not stated) landed at 5.82

###

Reported pKi values follow for various compounds
system: Cholecystokinin receptor type A (Rattus norvegicus)
Sequence (P30551 whole entry): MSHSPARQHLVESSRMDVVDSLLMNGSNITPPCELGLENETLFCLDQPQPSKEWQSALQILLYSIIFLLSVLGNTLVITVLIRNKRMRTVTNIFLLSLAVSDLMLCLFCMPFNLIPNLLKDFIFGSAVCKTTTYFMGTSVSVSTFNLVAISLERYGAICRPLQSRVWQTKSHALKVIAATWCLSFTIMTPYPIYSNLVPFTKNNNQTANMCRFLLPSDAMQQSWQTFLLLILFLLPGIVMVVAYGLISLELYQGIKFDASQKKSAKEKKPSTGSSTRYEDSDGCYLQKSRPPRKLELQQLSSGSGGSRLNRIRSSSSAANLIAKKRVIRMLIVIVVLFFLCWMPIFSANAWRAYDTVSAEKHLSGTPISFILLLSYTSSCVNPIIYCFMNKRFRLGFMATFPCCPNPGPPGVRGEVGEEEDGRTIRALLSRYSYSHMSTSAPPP
protocol.summary: In vitro inhibition of binding of [3H]pCCK-8 against Cholecystokinin type A receptor of rat pancreatic membranes
Assay type: cell membranes, Membrane
Kindly note that pKi refers to -log10 of the concentration in mol/L and answer with the value alone.

According to the records, this compound CSc1cccc(NC(=O)NC2C(=O)N(CCC(C)(C)C)c3ccccc3N(c3ccccc3F)C2=O)c1 (racemic) displays pKi of 7.93

Entry O=C(Nc1cccc(C(=O)OCCN2CCOCC2)c1)NC1C(=O)N(CC23C[C@H]4C[C@@H](C2)C[C@@H](C3)C4)c2ccccc2N(c2ccccc2)C1=O (single isomer, unassigned; (+)) ; pKi = 6.47

Sample O=C(Nc1ccccc1)NC1C(=O)N(c2ccccc2)c2ccccc2N(C2CC3CCC2C3)C1=O (racemic) ; pKi observed: 6.60

Record summary for O=C(Nc1ccccc1)NC1C(=O)N(CC23C[C@H]4C[C@@H](C2)C[C@@H](C3)C4)c2ccccc2N(c2ccccc2)C1=O (single isomer, unassigned; (+)) : reported pKi = 5.79

Short answer for CCOC(=O)c1cccc(NC(=O)NC2C(=O)N(CC34C[C@H]5C[C@@H](C3)C[C@@H](C4)C5)c3ccccc3N(c3ccccc3)C2=O)c1 (mixture of isomers) : pKi was 6.09

Short answer for CCCCN1C(=O)C(NC(=O)Nc2ccccc2)C(=O)N(c2ccccc2)c2ccccc21 (racemic) : pKi was 6.26

Data point: O=C(Nc1cccc(C2N=NN=N2)c1)NC1C(=O)N(CCC2CCCC2)c2ccccc2N(c2ccccc2F)C1=O (racemic) ; pKi = 6.92
